Entries annotated with measured apparent KD of K4 kissing-loop reporter
- Test system: K4 kissing-loop RNA reporter
- ASSAY_TEXT: apparent KD of K4 kissing-loop reporter; higher = weaker reporter binding
- RUN_CONDITIONS: Eterna round: R107; input ligand: theophylline 20 uM
Answer format: numeric, µM implied, no suffix.

Some entries whose results are on file:
BIOPOLYMER_SEQUENCE	ASSAYED_SYSTEM	SCALE_UNIT	apparent KD of K4 kissing-loop reporter
CCGAGCCUGACGAAAGUCAGGCUCUGCGAGCGAGGACCGGUACGGCCGCCACUCGGUGCAGUGAUGUUGCAUGGCCGCAAGGCCG [#2 Exclusion - Tryptophan A Attempt #22 (HarryS)]	K4 kissing-loop RNA reporter	µM	0.261
AAGGAAUGUAUAGAUUAUAUACAUUCAACAGAGGAUAUGCAUUAUUGCAGAAGGCUGAAUGCAGUGAUGUUGCAAUAAUUAUUUA [#09 K4 FMN A Same State]	K4 kissing-loop RNA reporter	µM	0.291
UGGCCUUAAAUUCUAGGAUUAGCGACGUACAAGGAUAUUCGUCAUCGAAGAAGGUGUAGCUAGGAGAGUGAUGUUUUCCAUCGCC [theeternabot_sameState_KL_FMN_A_15]	K4 kissing-loop RNA reporter	µM	0.576
CUGGGUUGACGAAAAGUCAACAAACGAGAAGGAGCGCACGAAAGUGCAGGUAGGUCGCUCAGUCCAGUGAUGUUGGAUCAUCCAG [#SwitchBubble 9 #K4Late]	K4 kissing-loop RNA reporter	µM	0.84
GAGGGCUCGGGAGGAUAUGAGUCUAGUGAUGUUAGGCGGUCCAUGCGCGUGGCGCGUUAUGCCCUUUUAGAAGGCCCGAGCCCGC [#2 Exclusion - FMN B Attempt #23 (HarryS)]	K4 kissing-loop RNA reporter	µM	0.0833

Please fill in: apparent KD of K4 kissing-loop reporter reported for AGAUAGGGCUGAAGGAGCGUCGGAAAAGAAAAGAUGAAAUCCAGUGAUGUUGGAUAAAUCCGACAGGUAGGUCGCAGUUUUAUGA [#01 K4 Arginine B Same State] = 0.161

Please fill in: apparent KD of K4 kissing-loop reporter reported for UAUCGAGUGAUGUUCGAUGUAGUCCAUUCAGAGGAUAUAGGAUUGACUAGAAGGCUGAAACCUUCUUCGAGUGAUGUUCGAGGAU [Same State FMN A GF4] = 0.0452

Please fill in: apparent KD of K4 kissing-loop reporter reported for UGUACAUGUCAGCGAGUGAUGUUCGACGAUACCAGACUCGAUAGAGUCCCUUGGCAGCGUAACGCAUGCCAAACUGGCAUGUACU [#SwitchBubble 9 #K4Early] = 0.646

Please fill in: apparent KD of K4 kissing-loop reporter reported for GGUUGAAGUACCCGGAGUGAUGUUCCGGAUACCAGCAAACCAACUUGCCCUUGGCAGCCGUAUAGCGUCCGGUGGACCGAGCAUA [Soriesreve] = 0.0762

Please fill in: apparent KD of K4 kissing-loop reporter reported for CGUUUAUAGCAGGAUACCAGUACCCAUAAAGUACGUUAAUAGUAGAGUGAUGUUCUAAAGUACCCUUGGCAGCUUCCAGUGAGUG [ExTheophylB.S] = 0.165

Please fill in: apparent KD of K4 kissing-loop reporter reported for GGGCUGGUGCUAGGAUAUGCGAUGAAUGCUCAGAAAACCUUGAGUCCGCAGUGAUGUUGCGGCACCGCAGAAGGAGCUAAGGCUC [Reorinraor] = 0.171

----------
- Tested on: MS2 coat protein
- ASSAY_TEXT: apparent KD of MS2 coat protein; designed switch direction (-1 OFF switch, 1 ON switch): 1; higher = weaker reporter binding
- RUN_CONDITIONS: Eterna round: R95; input ligand: none
OBSERVATION_TYPE: apparent KD of MS2 coat protein

Some entries whose results are on file:
BIOPOLYMER_SEQUENCE	apparent KD of MS2 coat protein
UGAGCCGGCACUGAGGAUAUUCAUAAUAAAACAUGAGGAUCACCCAUGUAGGCCAGAAGGCCUUGGGAGAAGGCAGGUCGGCUCU [Mat - Same State 2 - Mod of UCT - D70] (puzzle: Same State 2)	292 nM
UUAUAACAUGAGGAUCACCCAUGUCAACAAAGUCGAGGAUAUGGGCAUAGAUUAUAAGAACCAGAAGGCGAAUAUG [Mat - Same State 1 - Mod of UCT - D41] (puzzle: Same State 1)	1.69 nM

Now for another entry.
Please fill in: apparent KD of MS2 coat protein reported for GGCUAUCGCGUUCGAUAGCUUAAGCAUGUACAUGAGGAUCACCCAUGUCAUGUACAAGCUUUUUGCUCGUAUCUUAU (puzzle: Sensor for hsa-mir-208a) = 119 nM

----------
- Test system: MS2 coat protein
- ASSAY_TEXT: apparent KD of MS2 coat protein; higher = weaker reporter binding
- RUN_CONDITIONS: Eterna round: R107; input ligand: theophylline 20 uM
OBSERVATION_TYPE: apparent KD of MS2 coat protein (nM)
Answer format: numeric, nM implied, no suffix.

Some entries whose results are on file:
>>> print(df.to_string())
                        biopolymer_sequence  number
0  UUGUUGUUUGGAAGGAGCGUGUAUGAUUUAGAACAUGAGGAUCACCCAUGUUGGAGGAUAGCACAGGUAGGUCGCCGGGUGGUGG [11.X]    23.6
1  UUUUUUAACAUGGCGUAUCGGAAAACCGAUACCAGUACAGAAAUGUACCCUUGGCAGCGGCGUUUUACAUGAGGAUCACCCAUGU [Ex Theophylline A 3]      65
2  UGUACCAUGUCGGCCGCCACUCAUGAUAAAUAUGAGGAUCACCCAUAUAGCGUCAAAGACGCUAUGAGGACCGGGACAUGGUACU [TryBS Zipper 2]    50.5
3  UCGGGUUUGCGAAGGAGCGGGUAUGUUUUCUAGUGGAUCCUAACAUGAGGAUCACCCAUGUCCCAGGUAGGUCGCGCGGGUUUGG [12.W]     291
4  AUACAUGAGGAUCACCCAUGUCAUACAGAAGGAGCGUCACAUAAGACAGGUAGGUCGCUGAUAUAUACGUCACGAAUAGUGACGA [JR_SSArginiA_Sub017]    23.5

Now for another entry.
Please fill in: apparent KD of MS2 coat protein reported for AUUGACGUUGCGGCCGCCACUAGGCGUUCCCGGACAUGAGGAUCACCCAUGUGCUAGAGUGUAACUAGGACCGGGUAACCUCAGC [Verevean] = 290

----------
- System: MS2 coat protein
- ASSAY_TEXT: apparent KD of MS2 coat protein; designed switch direction (-1 OFF switch, 1 ON switch): -1; higher = weaker reporter binding
- RUN_CONDITIONS: input ligand: microRNA oligo, concentration not stated
If the reported apparent KD of MS2 coat protein equals or exceeds 20 nM, assign Criterion met. If not, assign Criterion not met.

Completed entries (count: 4):
BIOPOLYMER_SEQUENCE	CLASSIFICATION
AGGUGUAGGUAAGGAUAUAUCUAAAACCACAUGAGGAUCACCCAUGUAGCGGGUAUCUUCGUGAGAUAGAAGGUGCACGCCGAA [Atbiasori] (Eterna round: R96, puzzle: Exclusion NG 2)	Criterion met
UAUCUUCAUAUCACAUGAGGAUCACCCAUGUUAUUCAUCUCGUAGGAUAUCGAGGUUUUUUUUUUCGAGAAGGACGUAUUGUUU [JR_ExcNG3_Sub078] (Eterna round: R96, puzzle: Exclusion NG 3)	Criterion met
UAUUUGUCAGGAUAUGAGUCGUAGAACAAUAGUACUACGUCUCAGAAGGGACAUGAGGAUCACCCAUGUGCCUC [Fiskers Ex 4 Super Stable 44 mod 29] (Eterna round: R96, puzzle: Exclusion 4)	Criterion met
CAGUACUGAGGAUAUACAUGAGGAUCACCCAUGUGUUCCAGCUAGGAAUCUAGCAAAAGUAGAAGGCAGUACUG [salish99_ex3_r3_094x] (Eterna round: R96, puzzle: Exclusion 3)	Criterion met

Pending sequence:
Reported apparent KD of MS2 coat protein at or above 20 nM? CUGCUCCGUGUAGGAUAUGCGCGCACCACCCGCGCAGAAGGACAUGAGGAUCACCCAUGUAUGUUAUUAUCACGUGUGGCGCGC [Design 38] (Eterna round: R96, puzzle: Exclusion NG 1) Criterion not met

----------
Entries annotated with measured apparent KD of K4 kissing-loop reporter
- Test system: K4 kissing-loop RNA reporter;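 note: bound reporter read as fluorescence of individual clusters on recovered sequencing chips by microscopy, with normalized cluster intensities fitted with a binding model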
- ASSAY_TEXT: apparent KD of K4 kissing-loop reporter; higher = weaker reporter binding
- RUN_CONDITIONS: Eterna round: R107; input ligand: FMN 200 uM
Answer format: numeric, nM implied, no suffix.

Some entries whose results are on file:
In [3]: df
Out[3]:
                        biopolymer_sequence  number
0  AAUUGAGUGACGGCCGCCACUAGAGUGAUUUUUUUGUUUGAGUGAUGUUUUGAUGUUUGAUUUUGUAGGACCGGGUUGAGUGAUG [qqxzmullin]     305
1  UGUACAUGUCACCGAGUGAUGUUCGACGAUACCAGACUCGAUAGAGUCCCUUGGCAGCGUAACGCAUGCCAAAGUGGCAUGUACU [#SwitchBubble 10 #K4Early]     925

Please fill in: apparent KD of K4 kissing-loop reporter reported for ACCAUCAAAGAUGGCCAGGACUCCGCUGAUACCAGAGUGAAAACACUCCCUUGGCAGCAGGUGAGUGAUGUUCACGAGUCCUGGA [Omel KL Theo A SS B v6] = 986
